- System: Normal AML12 hepatocytes
- experiment.description: Resazurin reduction cytotoxicity assay
- Assay type: cell-based
- run.parameters: Mus musculus; normal AML12 hepatocytes, 72 h incubation
attribute.measured: IC50 (µM)
Answers are plain numbers, in µM.

compound: O=c1cc(-c2ccc(O)cc2)oc2ccc(O)cc12
test.system: Normal AML12 hepatocytes
attribute.measured: IC50
reading: 53.9

Continue with the compound presented below.
INPUT: Please look up its IC50: COc1cccc2c1C(=O)c1c(O)c3c(c(O)c1C2=O)C[C@@](O)(C(=O)CO)C[C@@H]3O[C@H]1C[C@H](N)[C@H](O)[C@H](C)O1 [Doxorubicin, doxorubicin, reference compound]
OUTPUT: 52.9

* * *

- Test system: CEM/ADR5000 cells (multidrug-resistant P-glycoprotein-overexpressing subline)
- experiment.description: Resazurin reduction cytotoxicity assay
- Format: cell-based
- run.parameters: IC50 in CEM/ADR5000 divided by IC50 in CCRF-CEM
attribute.measured: Degree of resistance
One number for each entry.

entry.smiles: C=C(C)[C@@H]1CC[C@]2(C(=O)O)CC[C@]3(C)[C@H](CC[C@@H]4[C@@]5(C)CC[C@H](O)C(C)(C)[C@@H]5CC[C@]43C)[C@@H]12
reading: 0.87
--
entry.smiles: O=c1cc(-c2ccc(O)cc2)oc2cc(O)ccc12
reading: 3.98

Continue with the compound presented below.
INPUT: Please look up its Degree of resistance: O=c1cc(-c2ccc(O)cc2)oc2ccc(O)cc12
OUTPUT: 2.05

* * *

- Tested on: HepG2 hepatocarcinoma cells
- experiment.description: Resazurin reduction cytotoxicity assay
- Format: cell-based
- run.parameters: Homo sapiens; HepG2, 72 h incubation
attribute.measured: pIC50
Give bare numbers, as −log10 of the molar value.

Known pIC50 results, listed for orientation:
compound: O=c1cc(-c2ccc(O)cc2)oc2ccc(O)cc12 [Compound 4]
reading: 4.47

compound: C=C(C)[C@@H]1CC[C@]2(C(=O)O)CC[C@]3(C)[C@H](CC[C@@H]4[C@@]5(C)CC[C@H](O)C(C)(C)[C@@H]5CC[C@]43C)[C@@H]12 [Compound 1, betulinic acid]
reading: 4.35

compound: O=c1cc(-c2ccc(O)cc2)oc2cc(O)ccc12 [Compound 3]
reading: 4.31

INPUT: Please look up its pIC50: COc1cccc2c1C(=O)c1c(O)c3c(c(O)c1C2=O)C[C@@](O)(C(=O)CO)C[C@@H]3O[C@H]1C[C@H](N)[C@H](O)[C@H](C)O1 [Doxorubicin, doxorubicin, reference compound]
OUTPUT: 5.34

* * *

I'd appreciate it if you could supply IC50 values for the items below.
- Test system: HCT116 p53+/+ colon cancer cells
- experiment.description: Resazurin reduction cytotoxicity assay
- Type: cell-based
- run.parameters: Homo sapiens, HCT-116, 72 h, 72 h incubation
One number for each entry, in µM.

entry.smiles: O=c1cc(-c2ccc(O)cc2)oc2ccc(O)cc12
reading: 88.9

INPUT: Please look up its IC50: C=C(C)[C@@H]1CC[C@]2(C(=O)O)CC[C@]3(C)[C@H](CC[C@@H]4[C@@]5(C)CC[C@H](O)C(C)(C)[C@@H]5CC[C@]43C)[C@@H]12
OUTPUT: 31.5

* * *

- System: CCRF-CEM leukemia cells
- experiment.description: Resazurin reduction cytotoxicity assay
- Type: cell-based
- run.parameters: Homo sapiens, 72 h, 72 h incubation
pIC50: −log10 of the molar value.
attribute.measured: pIC50

INPUT: CCRF-CEM leukemia cells / pIC50 / C=C(C)[C@@H]1CC[C@]2(C(=O)O)CC[C@]3(C)[C@H](CC[C@@H]4[C@@]5(C)CC[C@H](O)C(C)(C)[C@@H]5CC[C@]43C)[C@@H]12 : value?
OUTPUT: > 5.00
